Biological target: NUDT7 (Homo sapiens)
Construct: residues 14-235, E. coli, pNIC28-Bsa4, N-terminal His6 tag removed by TEV, construct 26672 Da
Sequence (P0C024 14-235): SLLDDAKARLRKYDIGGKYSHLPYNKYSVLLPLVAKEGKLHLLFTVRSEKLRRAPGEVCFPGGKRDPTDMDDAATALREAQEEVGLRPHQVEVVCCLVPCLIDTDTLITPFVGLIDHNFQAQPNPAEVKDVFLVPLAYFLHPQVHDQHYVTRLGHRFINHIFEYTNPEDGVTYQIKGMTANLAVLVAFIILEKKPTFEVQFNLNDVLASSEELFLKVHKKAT
Parameters: Intact protein LC/MS covalent labelling, fragments in pools of five, 200 uM each, 4 °C
Details: 24 h, 4 °C, pool of five; 200 µM; covalent
MEASURE_NAME: NUDT7

{"COMPOUND": "Cc1ccccc1CN(C)C(=O)CCl [PCM-0102707]", "VALUE_OBSERVED": 0.13}
{"COMPOUND": "COc1ccc(C2CCCCCN2C(=O)CCl)cc1 (stereo not shown) [PCM-0102558]", "VALUE_OBSERVED": 1}
{"COMPOUND": "N#Cc1c(NC(=O)CCl)sc2c1CCCCC2 [PCM-0102286]", "VALUE_OBSERVED": 0.33}
{"COMPOUND": "C=CC(=O)NCc1ccc2c(c1)C(C)(C)C(=O)N2 [PCM-0102570]", "VALUE_OBSERVED": 0}
{"COMPOUND": "CN(C)S(=O)(=O)c1ccc2c(c1)CCCN2C(=O)CCl [PCM-0102285]", "VALUE_OBSERVED": 0}
{"COMPOUND": "C=CC(=O)NC1CCN(c2ccccc2C(F)(F)F)C1 (stereo not shown) [PCM-0102731]", "VALUE_OBSERVED": 0}
{"COMPOUND": "C=CC(=O)Nc1cc(F)cc(F)c1 [PCM-0103039]", "VALUE_OBSERVED": 0.06}
{"COMPOUND": "O=C(CCl)Nc1cc(F)ccc1F [PCM-0102284]", "VALUE_OBSERVED": 0}
{"COMPOUND": "N#Cc1ccccc1S(=O)(=O)N1CCN(C(=O)CCl)CC1 [PCM-0102395]", "VALUE_OBSERVED": 0.28}
{"COMPOUND": "CC1CCN(C(=O)CCl)C2CCCCC12 (stereo not shown) [PCM-0102831]", "VALUE_OBSERVED": 0.37}
{"COMPOUND": "O=C(CCl)Nc1ccnn1C1CCCC1 [PCM-0102336]", "VALUE_OBSERVED": 0}
{"COMPOUND": "Cc1ccc(S(=O)(=O)N2CCN(C(=O)CCl)CC2)cc1 [PCM-0102759]", "VALUE_OBSERVED": 0.12}
{"COMPOUND": "C=CC(=O)N1CCc2c([nH]c3ccccc23)C1 [PCM-0102650]", "VALUE_OBSERVED": 0.14}
{"COMPOUND": "Cc1cc(NC(=O)CCl)n(-c2ccccc2C)n1 [PCM-0102699]", "VALUE_OBSERVED": 0}
{"COMPOUND": "O=C(CCl)N1CCN(S(=O)(=O)c2ccc(Cl)cc2)CC1 [PCM-0102704]", "VALUE_OBSERVED": 0.25}
{"COMPOUND": "CC(=O)c1cccc(N2Cc3ccccc3C2=NC(=O)CCl)c1 [PCM-0102283]", "VALUE_OBSERVED": 0}
{"COMPOUND": "C=CC(=O)N(C)C1CCCc2nc(CC)sc21 (stereo not shown) [PCM-0102483]", "VALUE_OBSERVED": 0}
{"COMPOUND": "Cc1nnc(NC(=O)CCl)s1 [PCM-0102211]", "VALUE_OBSERVED": 0}
{"COMPOUND": "O=C(CCl)N1CCCCCCC1 [PCM-0102377]", "VALUE_OBSERVED": 0}
{"COMPOUND": "COc1ccc(NC(=O)CCl)cc1 [PCM-0102156]", "VALUE_OBSERVED": 0}
{"COMPOUND": "CC(=O)c1ccc(N2CCN(C(=O)CCl)CC2)c(F)c1 [PCM-0102273]", "VALUE_OBSERVED": 0.2}
{"COMPOUND": "Cc1ccc(CN(C)C(=O)CCl)c(C)c1 [PCM-0102552]", "VALUE_OBSERVED": 0.19}
